# Test system: BT-549 breast
# test-details: NCI tumour cell line growth inhibition, 48 h
Reported TGI is given for each of the following molecules.

molecule: C=CCC1CC(n2cc(C)c(=O)[nH]c2=O)OC1CO[Si](C)(C)C(C)(C)C (stereo unspecified)
TGI: 29.6 µM
--
molecule: CSc1ccc(-c2cc(-c3nc4ccccc4[nH]3)no2)cc1
TGI: 55.5 µM
--
molecule: O=C(/C=C/c1ccccc1)CSc1ncn[nH]1
TGI: > 100 µM
--
molecule: COc1ccc(NC(=O)CSC2=C(Nc3cccc(Br)c3)C(=O)N(Cc3ccccc3)C2=O)cc1Cl
TGI: > 100 µM
--
molecule: NC(N)=NC(N)=Nc1ccc(S(=O)(=O)O)cc1
TGI: > 100 µM
--
molecule: O=C(O)C(O)C(O)C(=O)O (stereo unspecified)
TGI: > 100 µM

====

# System: MDA-MB-435
# test-details: NCI tumour cell line growth inhibition, 48 h
Reported TGI is given for each of the following compounds.

compound: O=S(=O)(NC1=NCCN1C(=S)SN1CCn2c1nsc2=S)c1cccc2ccccc12
TGI: 39.9 µM

compound: C=CCn1c(C)nc2ccc(Nc3nc(Nc4ccc(F)cc4)nc4ccccc34)cc21
TGI: 20.4 µM

compound: Cc1ccc2c(c1)C(=O)c1nc(C)ccc1C2=O
TGI: 44 µM

compound: O=[N+]([O-])c1ccc2c(c1)N([O-])C1(CCCCC1)[N+]2=O
TGI: 30.9 µM

compound: Cc1ccccc1OC(C)C(=O)NN1C(=O)CSC1c1ccc(Cl)cc1 (stereo not drawn)
TGI: > 100 µM

compound: CC(C)c1c(-c2ccccc2)nc2c(C#N)c[nH]n2c1=O
TGI: > 100 µM

compound: CCOC(=O)c1c(N=P(c2ccccc2)(c2ccccc2)c2ccccc2)nnc(-c2ccccc2)c1-c1ccccc1
TGI: > 100 µM

compound: CCc1ccc(NC(=O)NC(=O)c2ccccc2[N+](=O)[O-])cc1Oc1ncc(Cl)cn1
TGI: 0.0332 µM

compound: O=S(=O)(NCCNc1nccc(-c2c(-c3ccc(F)c(O)c3)nc3sccn23)n1)c1ccc(F)cc1
TGI: 4.99 µM

compound: CC(C)CCC[C@@H](C)[C@H]1CC[C@H]2[C@@H]3CC[C@H]4C[C@@H](CCC=C(c5cc(Cl)c(O)c(C(=O)O)c5)c5cc(Cl)c(O)c(C(=O)O)c5)CC[C@]4(C)[C@H]3CC[C@]12C
TGI: > 100 µM

compound: Cc1nc(-c2ccccc2)n2nc(NCCCN3CCOCC3)ncc12
TGI: > 25 µM

compound: [O-][N+](=Nc1ccccc1CO)c1ccccc1CO
TGI: > 100 µM

compound: CC(C)(C)OC(=O)N(CCCCNC(=O)OCc1ccccc1)CCCNC(=O)OCc1ccccc1
TGI: > 100 µM

compound: [C](#Cc1ccccc1)[Hg][C]#Cc1ccccc1
TGI: > 100 µM

compound: CC[C@@]1(O)C(=O)OCc2c1cc1n(c2=O)Cc2c-1nc1ccccc1c2/C=N\NC(=O)C1CCCN1 (stereo partly drawn)
TGI: > 100 µM

compound: CN(CCCCCl)P(=O)(OCCS(=O)(=O)CC(NC(=O)CCC(N)C(=O)O)C(=O)NC(C(=O)O)c1ccccc1)OCC1OC(n2ccc(N)nc2=O)C(F)(F)C1O (stereo not drawn)
TGI: > 100 µM

compound: O=C(NCCN1CCOCC1)c1cn2c(ccc3sc4ccccc4c(=O)c32)n1
TGI: > 100 µM

compound: O=c1c2cc(F)ccc2sc2c(N3CCNCC3)nc3ccc(F)cc3c12
TGI: 3.2 µM

====

# Tested on: LOX IMVI melanoma
# test-details: NCI tumour cell line growth inhibition, 48 h
Reported GI50 is given for each of the following molecules.
property-name: GI50

molecule: CCCCCCCCCCCCCCCCCC1=NC(C)(C)CN1CC(C)O (stereo unspecified)
study-system: LOX IMVI melanoma
property-name: GI50
recorded-value: 1810 nM

molecule: FC(F)(c1ccc2ncccc2c1)c1nnc2ccc(-c3ccncc3)nn12
study-system: LOX IMVI melanoma
property-name: GI50
recorded-value: 49600 nM

molecule: CC(=O)c1ccc2c(c1)C1C=CCC1[C@H](c1cc3c(cc1Br)OCO3)N2 (stereo partly specified)
study-system: LOX IMVI melanoma
property-name: GI50
recorded-value: 1310 nM

molecule: COc1cccc(/C(C#N)=C/c2nc3c(N4CCOCC4)nc(Cl)nc3n2C)c1
study-system: LOX IMVI melanoma
property-name: GI50
recorded-value: 1010 nM

molecule: Cc1nc(-c2ccccc2)n2nc(NCCCN3CCOCC3)ncc12
study-system: LOX IMVI melanoma
property-name: GI50
recorded-value: 15100 nM

molecule: COc1ccc2c(=O)cc(-c3ccccc3)[nH]c2c1
study-system: LOX IMVI melanoma
property-name: GI50
recorded-value: 4170 nM

====

Reported TGI is given for each of the following compounds.
# System: DU-145 prostate
# test-details: NCI tumour cell line growth inhibition, 48 h

compound: COc1ccc2c(=O)cc(-c3ccccc3)[nH]c2c1
study-system: DU-145 prostate
TGI: > 53.1 µM
--
compound: Cc1ccc(S(=O)(=O)OC2C(O)C(O)OC2C(c2cc(O)c3c(c2O)C(=O)c2ccccc2C3=O)c2cc(O)c3c(c2O)C(=O)c2ccccc2C3=O)cc1 (stereo not given)
study-system: DU-145 prostate
TGI: > 10 µM
--
compound: NC(N)=NC(N)=Nc1ccc(S(=O)(=O)O)cc1
study-system: DU-145 prostate
TGI: > 100 µM
--
compound: CS(=O)(=O)CCNCc1cc(-c2cc3c(Nc4ccc(OCc5cccc(F)c5)c(Cl)c4)ncnc3s2)cs1
study-system: DU-145 prostate
TGI: > 25 µM
--
compound: S=c1snc2n1CCN2
study-system: DU-145 prostate
TGI: > 100 µM

====

# Tested on: NCI-H460 lung
# test-details: NCI tumour cell line growth inhibition, 48 h
property-name: GI50

compound: COc1ccc(-c2ccncc2)cc1C(N)=O
study-system: NCI-H460 lung
recorded-value: > 25 µM

compound: CC(=O)c1ccc2c(c1)C1C=CCC1[C@H](c1cc3c(cc1Br)OCO3)N2 (stereo partly specified)
study-system: NCI-H460 lung
recorded-value: 0.954 µM

compound: COc1ccc2cc(/C=C/C(=O)c3ccc(Cl)cc3Cl)ccc2c1
study-system: NCI-H460 lung
recorded-value: 27.4 µM

compound: Cc1nc(N)nc2c1CCC(O)S2 (stereo unspecified)
study-system: NCI-H460 lung
recorded-value: 3.86 µM

compound: O=C(O)c1ccc(NCn2nc(-c3ccccc3O)oc2=S)cc1
study-system: NCI-H460 lung
recorded-value: 40.5 µM

compound: Cn1c(-c2c(N)n(Nc3cccc(Cl)c3)c3nc(C#N)c(C#N)nc23)nc2ccccc21
study-system: NCI-H460 lung
recorded-value: 13.3 µM

====

Reported TGI is given for each of the following compounds.
# Tested on: MDA-MB-231 breast
# test-details: NCI tumour cell line growth inhibition, 48 h
property-name: TGI

compound: COc1ccc(-c2cs/c(=N\N=C\c3ccc(O)cc3O)n2/N=C/c2ccc(O)cc2O)cc1
recorded-value: 5.51 µM
//
compound: CCCCCCCCOC(=O)CC[C@@H](C)[C@H]1CC[C@H]2[C@@H]3[C@H](OC(=O)CCN)C[C@@H]4C[C@H](OC(=O)CCN)CC[C@]4(C)[C@H]3C[C@H](OC(=O)CCN)[C@]12C
recorded-value: 7.9 µM
//
compound: COc1c(/C=C/C(C)(C)O)cc(C2CC(=O)c3c(O)cc(O)cc3O2)cc1CC=C(C)C (stereo not given)
recorded-value: 15.1 µM
//
compound: CC(C)(C)OC(=O)N(CCCCNC(=O)OCc1ccccc1)CCCNC(=O)OCc1ccccc1
recorded-value: > 100 µM
//
compound: COc1cc2c(cc1OC)C(=O)N(c1ccc(O)cc1)C2=O
recorded-value: > 100 µM
//
compound: CN(Cc1cnc2nc(N)nc(N)c2n1)c1ccc(C(=O)N[C@@H](CCC(=O)O)C(=O)O)cc1
recorded-value: > 250 µM
//
compound: Cc1nc(C)c(N2CCN(S(=O)(=O)N(Cc3ccccc3)Cc3ccccc3)CC2)c(=O)[nH]1
recorded-value: > 64.5 µM
//
compound: COC(CN(C(C)=O)C1CCC2(SCCS2)c2[nH]c3ccccc3c21)OC (stereo not given)
recorded-value: > 100 µM
//
compound: CCCCCCCCCCCCCCCCCC1=NC(C)(C)CN1CC(C)O (stereo not given)
recorded-value: 4.37 µM
//
compound: CC(C)c1c(-c2ccccc2)nc2c(C#N)c[nH]n2c1=O
recorded-value: > 100 µM
//
compound: COc1ccc2nc(-c3ccccc3)cc(OCC(=O)O)c2c1
recorded-value: > 100 µM
//
compound: CCOC(=O)c1c(N=P(c2ccccc2)(c2ccccc2)c2ccccc2)nnc(-c2ccccc2)c1-c1ccccc1
recorded-value: > 100 µM
//
compound: NC(=O)N/N=C(/CC1C(=O)Oc2ccccc21)c1ccccc1O (stereo not given)
recorded-value: > 100 µM
//
compound: CCP(=O)(CC)C(Cl)Cl
recorded-value: > 100 µM
//
compound: Cn1c2ccccc2c2c3c(c4c5ccccc5n(C)c4c21)C(=O)NC3=O
recorded-value: > 52.7 µM
//
compound: CN(C)c1ccc(/C=C2\N=C(NNc3ccccc3)NC2=O)cc1
recorded-value: 40.1 µM
//
compound: C=CCn1c(C)nc2ccc(Nc3nc(Nc4ccc(F)cc4)nc4ccccc34)cc21
recorded-value: 8.24 µM
//
compound: NC(N)=NC(N)=Nc1ccc(S(=O)(=O)O)cc1
recorded-value: > 100 µM
//
compound: CSc1ccc(-c2cc(-c3nc4ccccc4[nH]3)no2)cc1
recorded-value: > 100 µM
//
compound: CCNc1cc(-c2cccc(OC(F)(F)F)c2)nc2ccc(N3CCCC3)cc12
recorded-value: 3.16 µM
